Entry source: paper PMC9303331

Molecular target: T1, mGLP‐1 receptor (mouse, UniProt O35659 22-463)
T1 construct: mouse glucagon-like peptide-1 receptor, pcDNA3.1(+) plasmid from ThermoFisher; also called mouse GLP‐1 receptor; source: COS-7, transiently transfected (pcDNA3.1(+)), on whole cells
T1 sequence (looked up): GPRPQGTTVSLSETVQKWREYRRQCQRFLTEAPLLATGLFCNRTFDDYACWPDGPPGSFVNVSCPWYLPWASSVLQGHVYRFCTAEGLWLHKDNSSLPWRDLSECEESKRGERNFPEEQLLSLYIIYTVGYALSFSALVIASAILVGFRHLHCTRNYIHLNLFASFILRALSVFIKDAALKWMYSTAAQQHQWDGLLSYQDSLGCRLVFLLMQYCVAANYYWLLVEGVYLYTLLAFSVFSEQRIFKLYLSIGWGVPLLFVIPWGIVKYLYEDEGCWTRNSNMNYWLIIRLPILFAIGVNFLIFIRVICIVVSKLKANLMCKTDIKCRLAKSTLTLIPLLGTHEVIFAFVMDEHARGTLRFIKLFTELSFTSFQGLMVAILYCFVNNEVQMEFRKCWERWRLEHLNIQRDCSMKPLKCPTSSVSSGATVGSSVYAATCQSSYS
Conditions: one partner purified
Endpoint Name: Ki (nM)

1) HADGSFSDEMNTILDNLAARDFINWLIQTKITD [hGLP‐2(1–33)] ... 183
